B1: Centrosome-associated zinc finger protein Cp190 (Drosophila melanogaster (Fruit fly)), Q24478 (parent)
chain: MGEVKSVKVDNWGVFFLQKLQNFFNKTDYCDLTLQFRDNSQLKVHRLVLSACTDYFNVLEQTCEIVDDALIMPNEFQADVVVPIVNFMYTGTLEFELKMYGKLLRTAKEMNMTVLLKLLEAHRRTMENVNRQQRPPSPKGIRRRTVGQPSSGLPQQRVLGPSPQSRNVATPIAQRANTQRGSTGNTMSRTSGGSNRSPYGDSSNVKQEPTSPFEQLRKGYNNNKRPAQTSLLSPPSKKPSLEEVKEFAEQQRMRKQIAAEYGDNDPEYDGGMLYDDVHAGDDDDDDMPPQPSTSKQQSPQGTQTQLEHGSTTIILKQDSPSQTPTIIVKDSSNAKLNHTKIIAEVLRQYPHIVKGHKNIKLKIMPNTPAAPTEKSAPATVKPPANQSSATTSPHKKLHVSFKADKSTPLITAQQKAASSQQKSGTSQTTGNQGTGANPPANTAAAQKRRIDSKTMHALIAQGAENTTGPWLCLRCGVNGRPISIPSYRGFRRHLINTHKETIDPALCEHCGWRSVNNRELHFHMYMEHQTKSLLYTFAECALCNQSYRTKGELEAHINEVHTDDNKQQCIYCNKVFEQELQLYRHMKSYHKEQALEDGIIDETDEEFLGSQDEEEEAEGDEEQEPEQTGKVRILSDISLPATSAITVQQAQQEQLQEEDVEQVQQEVKFVGADGNEVELTDEQRKEILSQLNQQQAGATAGGVVMVLSEPEAEHVKQETDEKSLAGTEEEYDDSQIYSELGAADSVESAKKNIADESKESIDNLEWAENLIAESEEQSNKEPKSDKPRDDISEKLKELTGDWTEDENDDDVDDKPATAELASELANKDPEPTVHEEEDDIDLALQSLHKGPEEATEEKASEESVTSADDAVDAVPNINSQPEKMDVDSEAADEKASKAEVQIKKEAELENDQEEFIKEDSPIPHSDSVAELREAVTASEGEDDVHLEADNIRKELLDELIAEAEKPDQEKDIVQSEENATTEALDRSVTDEDDLVPPTQVSTEQMEIDEPAAEKAAENNEDTRTADEKEAVEDKPNQTQDVTTAEKPTLESAKAGDEATSGEAASVDKVKSLISEWGDDDEDEDENGVSAAAKEEL
partner: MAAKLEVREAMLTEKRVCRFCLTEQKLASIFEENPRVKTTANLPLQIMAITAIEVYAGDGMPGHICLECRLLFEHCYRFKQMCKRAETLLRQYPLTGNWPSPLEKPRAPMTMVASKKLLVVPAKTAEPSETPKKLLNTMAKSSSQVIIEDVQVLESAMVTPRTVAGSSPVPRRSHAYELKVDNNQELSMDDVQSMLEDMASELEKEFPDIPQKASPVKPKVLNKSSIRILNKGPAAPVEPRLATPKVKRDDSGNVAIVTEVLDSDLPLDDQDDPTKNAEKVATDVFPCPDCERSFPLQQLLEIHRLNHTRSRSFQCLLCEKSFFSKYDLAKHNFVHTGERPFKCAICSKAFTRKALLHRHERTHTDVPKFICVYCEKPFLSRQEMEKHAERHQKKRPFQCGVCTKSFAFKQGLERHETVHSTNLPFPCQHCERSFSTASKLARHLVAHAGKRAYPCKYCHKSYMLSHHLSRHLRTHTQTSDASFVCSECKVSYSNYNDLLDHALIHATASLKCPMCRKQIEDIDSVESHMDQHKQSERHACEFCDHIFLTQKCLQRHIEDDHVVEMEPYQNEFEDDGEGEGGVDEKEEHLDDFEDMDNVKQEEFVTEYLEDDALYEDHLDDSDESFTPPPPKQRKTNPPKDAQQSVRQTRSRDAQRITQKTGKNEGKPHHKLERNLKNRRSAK

Variants of: B1
condition-notes: with pita_drome pita
assay-readout: effect of a mutation on the interaction

Examples from the recorded data:
variant_string=F15A endpoint_result="with no effect"
variant_string=L118A endpoint_result="with no effect"
variant_string=K19A endpoint_result="with no effect"
variant_string=V114N endpoint_result="with no effect"

get_value(item= K117S , readout=effect of a mutation on the interaction) returns with no effect

get_value(item= V114A , readout=effect of a mutation on the interaction) returns with no effect
